IC50 data for Leukotriene B4 receptor 1 (Homo sapiens) follow.
quantity.kind: IC50 (nM)

• CC(C)(CCCCOc1cc(-c2ccc(N)cc2)c2ccccc2n1)C(=O)O = 250
• COc1ccc(/C=C/CCCCOc2ccc(C(=O)c3cccc(C(=O)O)c3)cc2CCC(=O)O)cc1 = 3.5
• Cc1ccc(-c2cc(OCCCCC(C)(C)C(=O)O)nc3ccccc23)cc1 = 100
• O=C(O)CCCCCOc1cc(-c2ccc(Cl)cc2)c2ccccc2n1 = 150

----------
# System: Leukotriene B4 receptor 1 (Cavia porcellus)
# assay.summary: Inhibition of [3H]LTB4 binding to Leukotriene B4 receptor in the guinea pig spleen membranes at a dose of 10 uM
# experimental.conditions: Membrane
quantity.kind: inhibition (%)

* O=C(O)CCCCCCc1cc(-c2ccccc2)c2ccccc2n1 | 34
* CC(C)(CCCCNc1cc(-c2ccccc2)c2ccccc2n1)C(=O)O | 0
* CC(=O)Nc1ccc(-c2cc(OCCCCC(C)(C)C(=O)O)nc3ccccc23)cc1 | 23
* COc1ccccc1-c1cc(OCCCCC(C)(C)C(=O)O)nc2ccccc12 | 36
* O=C(CCCCCOc1cc(-c2ccccc2)c2ccccc2n1)N1CCCC1 | 12
* OCCCCCCOc1cc(-c2ccccc2)c2ccccc2n1 | 14
* CC(C)(CCCCSc1cc(-c2ccccc2)c2ccccc2n1)C(=O)O | 33
* O=C(O)CCCCOc1cc(-c2ccccc2)c2ccccc2n1 | 0
* O=C(O)CCCC/C=C/c1cc(-c2ccccc2)c2ccccc2n1 | 27
